- Tested on: A549
- Procedure text: Cytotoxic activity against human A549 bulk cells incubated for 72 hrs by Cell-titer-Glo luminescence assay
- Format: functional, cell-based
- Measurement setup: A549, 72 h
Please respond with reported log10(IC50) for every item in the list.
A value of 2 here means IC50 of 100 in nM, since values are log10.

Lab note: "Cc1[nH]c(/C=C2\C(=O)Nc3ccc(-c4cnn(-c5ccccn5)c4)cc32)c(C)c1C(=O)NCCN1CCCC1" gave log10(IC50) of 3.40

Lab note: "O=C1Nc2ccc(-c3csc(C4CCNCC4)n3)cc2/C1=C/c1cc2c([nH]1)CCCC2" gave log10(IC50) of 3.97

Measured log10(IC50), "Cc1cc(C)c(/C=C2\C(=O)Nc3c2cccc3-c2ccncc2)[nH]1" : 4.37

log10(IC50) for "CCN(CC)CCNC(=O)c1c(C)[nH]c(/C=C2\C(=O)Nc3c2cccc3-c2csc(-c3ccccc3)n2)c1C" is 3.29

Please fill in: log10(IC50) reported for "CCN(CC)CCNC(=O)c1c(C)[nH]c(/C=C2\C(=O)Nc3ccc(-c4cnn(C5CCOCC5)c4)cc32)c1C" = 4.20

Notebook: "CCN(CC)CCNC(=O)c1c(C)[nH]c(/C=C2\C(=O)Nc3ccc(-c4ccc(C(=O)O)s4)cc32)c1C" , log10(IC50) read as 3.34

log10(IC50) for "CCN(CC)CCNC(=O)c1c(C)[nH]c(/C=C2\C(=O)Nc3cc(-c4ccc(O)cc4C)ccc32)c1C" is 3.44

Given item "CCN(CC)CCNC(=O)c1c(C)[nH]c(/C=C2\C(=O)Nc3c2cccc3-c2ccc3cc[nH]c3c2)c1C" , the value recorded as its log10(IC50) is 3.46

Reported log10(IC50) for "CCN(CC)CCNC(=O)c1c(C)[nH]c(/C=C2\C(=O)Nc3ccc(-c4n[nH]c5ccccc45)cc32)c1C" was 3.48

// "CCN(CC)CCNC(=O)c1c(C)[nH]c(/C=C2\C(=O)Nc3ccc(-c4cc(-c5ccccc5)ccn4)cc32)c1C" : log10(IC50) value = 3.18

Documented log10(IC50) of "CCN(CC)CCNC(=O)c1c(C)[nH]c(/C=C2\C(=O)Nc3ccc(-c4cnc(-c5ccccc5)cn4)cc32)c1C" : 4.23

The reported value for "Cc1[nH]c(/C=C2\C(=O)Nc3ccc(-c4csc(-c5ccccc5)n4)nc32)c(C)c1C(=O)NCCN1CCCC1" in terms of log10(IC50) is 3.16

get_value(item= "CCN(CC)CCNC(=O)c1c(C)[nH]c(/C=C2\C(=O)Nc3ccc(-c4cccc(C#N)c4C)cc32)c1C" , readout=log10(IC50)) returns 3.45

For record "CCN(CC)CCNC(=O)c1c(C)[nH]c(/C=C2\C(=O)Nc3ccc(-c4ccc(-c5ccccc5)cn4)cc32)c1C" the listed log10(IC50) is 3.31

Reported log10(IC50) ( "Cc1[nH]c(/C=C2\C(=O)Nc3ccc(-c4csc(-c5ccccc5)n4)cc32)c(C)c1S(=O)(=O)N1CCOCC1" ) = 3.86

The molecule "CCN(CC)CCNC(=O)c1c(C)[nH]c(/C=C2\C(=O)Nc3ccc(-c4cnccn4)cc32)c1C" showed log10(IC50) equal to 4.03

Data point: Cc1cc(C)c(/C=C2\C(=O)Nc3ccc(-c4csc(C5CCCNC5)n4)cc32)[nH]1 (configuration not stated) ; log10(IC50) = 3.13

----------
Exercise: state measured inhibition for each of the compounds provided.
- Target desc: Serine/threonine-protein kinase RIO2 (Homo sapiens)
- Procedure text: Inhibition of N-terminal GST-fused full length human recombinant RIOK2 expressed in baculovirus Sf21 cells assessed as reduction in kinase auto-phosphorylation at 10 uM in presence of ATP incubated for 1 hr by ELISA method
State the value with its unit after it.

inhibition for "CCN(CC)CCN(C)C(=O)c1c(C)[nH]c(/C=C2\C(=O)Nc3ccc(-c4cnn(-c5ccccc5)c4)cc32)c1C" is 113%

Looking up "CCN(CC)CCNC(=O)c1c(C)[nH]c(/C=C2\C(=O)Nc3ccc(-c4cnn(-c5ccccc5)c4)cc32)c1C" , I found its inhibition recorded as 94%

GET /value?item= "Cc1[nH]c(/C=C2\C(=O)Nc3ccc(-c4cnn(-c5ccccc5)c4)cc32)c(C)c1C(=O)N[C@@H]1CCCNC1" &field=inhibition returns 130%

The compound listed as "CCN(CC)CCNC(=O)c1c(C)[nH]c(/C=C2\C(=O)Nc3ccc(-c4cnn(-c5cccnc5)c4)cc32)c1C" shows inhibition equal to 82%

Lab note: measured inhibition of "CCN(CC)CCNC(=O)c1c(C)[nH]c(/C=C2\C(=O)Nc3ccc(-c4cnn(-c5cnccn5)c4)cc32)c1C" was 95%

Value of measured inhibition for the entry "CCN(CC)CCNC(=O)c1c(C)[nH]c(/C=C2\C(=O)Nc3ccc(-c4cnn(-c5ccccc5)c4C)cc32)c1C" : 76%

compound "CCN(CC)CCNC(=O)c1c(C)[nH]c(/C=C2\C(=O)Nc3ccc(-c4cnn(-c5ccncn5)c4)cc32)c1C" , inhibition observed: 109%

According to the records, this compound "Cc1[nH]c(/C=C2\C(=O)Nc3ccc(-c4ccc(-c5ccccc5)s4)cc32)c(C)c1C(=O)N1CCN(C)CC1" displays inhibition of 65%

The recorded inhibition for entry "CCN(CC)CCNC(=O)c1c(C)[nH]c(/C=C2\C(=O)Nc3ccc(-c4cnn(-c5ncccn5)c4)cc32)c1C" equals 112%

Form field inhibition, entry "CCN(CC)CCNC(=O)c1c(C)[nH]c(/C=C2\C(=O)Nc3ccc(-c4ccc(-c5ccccc5)s4)cc32)c1C" : 14%

Sure, the documented inhibition for "CCN(CC)CCNC(=O)c1c(C)[nH]c(/C=C2\C(=O)Nc3ccc(-c4ccnn4-c4ccccn4)cc32)c1C" is 93%

Briefly, inhibition measured for "Cc1[nH]c(/C=C2\C(=O)Nc3ccc(-c4cnn(-c5ccccc5)c4)cc32)c(C)c1C(=O)NCC1(N)CCCC1" : 65%

Sure, the documented inhibition for "Cc1[nH]c(/C=C2\C(=O)Nc3ccc(-c4cnn(-c5ccccc5)c4)cc32)c(C)c1C(=O)NC1CCNCC1" is 140%

For "CCN(CC)CCNC(=O)c1c(C)[nH]c(/C=C2\C(=O)Nc3ccc(-c4cnn(-c5ccccn5)c4)cc32)c1C" the compound record lists inhibition as 86%

inhibition reported for this compound "CCN(CC)CCNC(=O)c1c(C)[nH]c(/C=C2\C(=O)Nc3ccc(-c4ccnn4-c4ccccc4F)cc32)c1C" : 116%

Form field inhibition, entry "CCN(CC)CCNC(=O)c1c(C)[nH]c(/C=C2\C(=O)Nc3ccc(-c4cnn(-c5ccc(S(N)(=O)=O)cc5)c4)cc32)c1C" : 71%

Entry "CCN(CC)CCNC(=O)c1c(C)[nH]c(/C=C2\C(=O)Nc3ccc(-c4cnn(-c5nccs5)c4)cc32)c1C" — recorded inhibition = 111%

// recorded inhibition for "CCN(CC)CCCNC(=O)c1c(C)[nH]c(/C=C2\C(=O)Nc3ccc(-c4cnn(-c5ccccc5)c4)cc32)c1C" : 96%

Kindly note the recorded inhibition for "Cc1[nH]c(/C=C2\C(=O)Nc3ccc(-c4nnc(-c5ccccc5)s4)cc32)c(C)c1C(=O)N1CCN(C)CC1" , which is 19%

Lookup result for "CCOCCCNC(=O)c1c(C)[nH]c(/C=C2\C(=O)Nc3ccc(-c4cnn(-c5ccccc5)c4)cc32)c1C" ; measured inhibition: 43%

response.value for "Cc1[nH]c(/C=C2\C(=O)Nc3ccc(-c4cnn(-c5ccccc5)c4)cc32)c(C)c1C(=O)N[C@H]1[C@@H]2CNC[C@@H]21" (field: inhibition) = 134%

Sample "Cc1[nH]c(/C=C2\C(=O)Nc3ccc(-c4cnn(-c5ccccn5)c4)cc32)c(C)c1C(=O)NCCN1CCCC1" ; inhibition observed: 91%

Form: compound = "CCN(CC)CCNC(=O)c1c(C)[nH]c(/C=C2\C(=O)Nc3ccc(-c4cnn(-c5cscn5)c4)cc32)c1C" ; inhibition = 99%

Per the record, "CCN(CC)CCNC(=O)c1c(C)[nH]c(/C=C2\C(=O)Nc3ccc(-c4ccnn4-c4ccc(OC)cc4)cc32)c1C" has inhibition of 106%

get_value(item= "CCN(CC)CCNC(=O)c1c(C)[nH]c(/C=C2\C(=O)Nc3ccc(-c4ccnn4-c4ccccc4)cc32)c1C" , readout=inhibition) returns 100%

inhibition for "Cc1[nH]c(/C=C2\C(=O)Nc3ccc(-c4cnn(-c5ccccc5)c4)cc32)c(C)c1C(=O)N[C@H]1CCCNC1" is 122%

Data point: Cc1[nH]c(/C=C2\C(=O)Nc3ccc(-c4cnn(-c5ccccc5)c4)cc32)c(C)c1C(=O)NC1CNCC(c2ccccc2)C1 (stereo unspecified) ; inhibition = 69%

Kindly note the recorded inhibition for "Cc1[nH]c(/C=C2\C(=O)Nc3ccc(-c4cnn(-c5ccccc5)c4)cc32)c(C)c1C(=O)NCc1nc2ccccc2[nH]1" , which is 79%

Recorded inhibition (compound "CCN(CC)CCNC(=O)c1c(C)[nH]c(/C=C2\C(=O)Nc3ccc(-c4ccnn4-c4ccc(F)cc4)cc32)c1C" ): 104%

Sure, the documented inhibition for "CCN(CC)CCNC(=O)c1c(C)[nH]c(/C=C2\C(=O)Nc3ccc(-c4ccnn4-c4ccncc4)cc32)c1C" is 44%

The value of inhibition measured for the compound "Cc1[nH]c(/C=C2\C(=O)Nc3ccc(-c4cnn(-c5ccccc5)c4)cc32)c(C)c1C(=O)NC1(CN2CCCCC2)CC1" turned out to be 107%
